From: paper PMC3773979

- TESTED SYSTEM: S. pneumoniae DHFR (Streptococcus pneumoniae serotype 4, UniProt Q54801, A78V/I100L/K60Q/V77A)
- EXPERIMENT DESCRIPTION: Equilibrium fluorescence quenching titration, spDHFR
- CONDITION SUMMARY: read-out: Kd (NADPH), pH 7.0, MTEN buffer
OUTCOME MEASURE: pKd
Numbers only, as −log10 of the molar value.

input: Give the value of pKd reported for the following: NC(=O)C1=CN([C@@H]2O[C@H](COP(=O)(O)OP(=O)(O)OC[C@H]3O[C@@H](n4cnc5c(N)ncnc54)[C@H](OP(=O)(O)O)[C@@H]3O)[C@@H](O)[C@H]2O)C=CC1
output: 6.68
